Would you kindly list Apical domain:HSA for each of these binders?
# SYSTEM UNDER TEST: T1, apical domain of human CD71 (human, UniProt P02786 189-383, limits assumed)
# T1 construct: domain: apical domain; the panning antigen was 30% biotinylated; also called human apical domain of CD71
# T1 sequence (P02786 189-383 limits assumed): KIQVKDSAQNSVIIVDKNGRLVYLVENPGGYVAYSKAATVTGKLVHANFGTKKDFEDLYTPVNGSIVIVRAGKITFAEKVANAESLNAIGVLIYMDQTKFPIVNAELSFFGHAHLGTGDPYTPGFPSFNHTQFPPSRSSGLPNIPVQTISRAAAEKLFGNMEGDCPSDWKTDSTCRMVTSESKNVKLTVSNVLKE
# METHOD NOTES: primary ELISA; signal on apical domain over signal on HSA
Answers are plain numbers, in ratio.

As a guide, the following entries are already answered.
BINDER	QUANTITY MEASURED	UNIT SYMBOL	OBSERVED
CD71-binding FN3 domain of SEQ ID NO: 112 (designed binder, Screen 1 hit, tested from colonies in the primary ELISA; not shown: C-terminal poly-histidine tag added to each FN3 domain) MLPAPKNLVVSRVTEDSARLSWTAPDAAFDSFFIGYLEPQPPGEAIDLWVPGSERSYDLTGLKPGTEYNVTIQGVKGGFPSMPLSAIFTT	Apical domain:HSA	ratio	1800
CD71-binding FN3 domain of SEQ ID NO: 107 (designed binder, Screen 1 hit, tested from colonies in the primary ELISA; not shown: C-terminal poly-histidine tag added to each FN3 domain) MLPAPKNLVVSRVTEDSARLSWTAPDAAFDSFFIGYLEPQPPGEAIGLQVPGSERSYDLTGLKPGTEYNVTIQGVKGGFPSMPLSAIFTT	Apical domain:HSA	ratio	1300
CD71-binding FN3 domain of SEQ ID NO: 117 (designed binder, Screen 1 hit, tested from colonies in the primary ELISA; not shown: C-terminal poly-histidine tag added to each FN3 domain) MLPAPKNLVVSRVTEDSARLSWTAPDAAFDSFFIGYLEPQPPGEAIWLLVPGSERSYDLTGLKPGTEYNVTIQGVKGGFPSTPLSAIFTT	Apical domain:HSA	ratio	1420
CD71-binding FN3 domain of SEQ ID NO: 118 (designed binder, Screen 1 hit, tested from colonies in the primary ELISA; not shown: C-terminal poly-histidine tag added to each FN3 domain) MLPAPKNLVVSRVTEDSARLSWTAPDAAFDSFYIAYAEPRPDGEAITLWVPGSERSYDLTGLKPGTEYSVTIHGVKGGLLSSPLSAIFTT	Apical domain:HSA	ratio	1170
CD71-binding FN3 domain of SEQ ID NO: 104 (designed binder, Screen 1 hit, tested from colonies in the primary ELISA; not shown: C-terminal poly-histidine tag added to each FN3 domain) MLPAPKNLVVSRVTEDSARLSWTAPDAAFDSFFIGYLEPQPPGEAIHLIVPGSERSYDLTGQKPGTEYNVTIQGVKGGFPSDPLVASFTT	Apical domain:HSA	ratio	150
CD71-binding FN3 domain of SEQ ID NO: 108 (designed binder, Screen 1 hit, tested from colonies in the primary ELISA; not shown: C-terminal poly-histidine tag added to each FN3 domain) MLPAPKNLVVSRVTEDSARLSWTAPDAAFDSFYIAYAEPRPDGEAILLQVPGSERSYDLTGLKPGTEYSVLIHGVKGGLLSSPLVAKFTT	Apical domain:HSA	ratio	1720
CD71-binding FN3 domain of SEQ ID NO: 113 (designed binder, Screen 1 hit, tested from colonies in the primary ELISA; not shown: C-terminal poly-histidine tag added to each FN3 domain) MLPAPKNLVVSRVTEDSARLSWTAPDAAFDSFFIGYLEPQPPGEAIYLLVPGSERSYDLTGLKPGTEYNVTIQGVKGGFPSDPLSAIFTT	Apical domain:HSA	ratio	2120
CD71-binding FN3 domain of SEQ ID NO: 114 (designed binder, Screen 1 hit, tested from colonies in the primary ELISA; not shown: C-terminal poly-histidine tag added to each FN3 domain) MLPAPKNLVVSRVTEDSARLSWTAPDAAFDSFHIVYHEPRPSGEAIWLFVPGSERSYDLTGLKPGTEYEVGIVSVKGGDLSVPLSAIFTT	Apical domain:HSA	ratio	311

*Q* Return Apical domain:HSA (reported value) for this binder: CD71-binding FN3 domain of SEQ ID NO: 111 (designed binder, Screen 1 hit, tested from colonies in the primary ELISA; not shown: C-terminal poly-histidine tag added to each FN3 domain) MLPAPKNLVVSRVTEDSARLSWTAPDAAFDSFFIGYLEPQPPGEAISLWVPGSERSYDLTGLKPGTEYNVTIQGVKGGFPSIPLWAIFTT
*A* 1940
